System name: DNA gyrase (Escherichia coli) (UniProt P0AES6+P0AES4)
Measurement context: Escherichia coli K-12
Description: Concentration which causes 50% of the gyrase (Escherichia coli H560)-mediated maximal DNA cleavage.
For each of the compounds below, state its CC50.
Please make sure the unit comes right after the number.

Use the examples below as a reference point.
# Compound, CC50
rows = [
    ("Cc1c(N2C[C@H]3CCC[C@H](N)[C@H]3C2)c(F)cn2c(=O)c(C(=O)O)cc(C3CC3)c12", "0.3 µg/mL"),
    ("COc1c(N2CCC(N)C2)c(F)cn2c(=O)c(C(=O)O)cc(C3CC3)c12 (stereo not drawn)", "0.3 µg/mL"),
]

Entry `Cc1c(N2C[C@@H]3[C@@H](N)[C@@H]3C2)c(F)cn2c(=O)c(C(=O)O)cc(C3CC3)c12` : reported CC50 = ? 0.3 µg/mL
